# tgt: T1, TP-51 peptide (aa 352-414 of SEQ ID NO:1) (human)
# T1 construct: Synthetic peptide (Pepscan)
# T1 peptide: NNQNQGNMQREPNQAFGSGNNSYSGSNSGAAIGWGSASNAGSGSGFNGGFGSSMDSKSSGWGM
# assay.comment: SPR 8K, mAb captured, TP-51 injected; IgG1
readout.type: koff (s⁻¹)
Write down the numeric answer in s⁻¹ and omit the unit.

koff for hACI-7069-633B12-Ab1_H16L14 (IgG1) (antibody, V domains shown, Human IgG1 / kappa) VH: EVQLVQSGAEVKKPGASVKVSCKASGFTFTEYSMHWVRQAPGQRLEWMGGINPGNAGTSYNQKFKGRVTITVDTSASTAYMELSSLRSEDTAVYYCARESWGQGTTVTVSS VL: DVVMTQSPLSLPVTLGQPASISCKSSQSLLHSDAKTYLNWLQQRPGQSPRRLIYLVSKLDSGVPDRFSGSGSGTDFTLKISRVEAEDLGVYYCFQGTHFPHTFGQGTKLEIK ? 0.0011

The measured values listed here are drawn from patent US20230322908A1.
